- Test system: A549
- experiment.notes: Cytotoxicity against human A549/ATCC cells assessed as effect on cell growth at 10 uM incubated for 48 hrs by sulforhodamine B assay
- Type: cell-based
- settings: a549, 48 h
readout.label: Activity

O=C(NCc1ccc(Cl)cc1Cl)[C@@H]1CCC(=O)N1C(c1ccccc1)c1ccccc1	Non-Toxic
O=C(NCCc1ccccc1)[C@@H]1CCC(=O)N1Cc1ccc(Br)cc1	Non-Toxic
COc1cc(CN/C=C2\C[C@@H](C(=O)NCc3ccc(Cl)cc3Cl)NC2=O)cc(OC)c1OC	Non-Toxic

====

- Tested on: T47D
- experiment.notes: Cytotoxicity against human T47D cells assessed as effect on cell growth at 10 uM incubated for 48 hrs by sulforhodamine B assay
- Format: cell-based
readout.label: Activity

Check out these entries, answers already filled in.
O=C(NCc1ccccc1Cl)[C@@H]1CCC(=O)N1Cc1ccc(Cl)cc1	Non-Toxic
O=C(NCc1ccc(Cl)cc1Cl)[C@@H]1CCC(=O)N1Cc1ccc(Cl)cc1	Non-Toxic
O=C(NCc1ccc(Cl)cc1Cl)[C@@H]1CCC(=O)N1c1ccc(Cl)cc1Cl	Non-Toxic
O=C(NCc1ccc(Cl)cc1Cl)[C@@H]1CCC(=O)N1Cc1ccccc1	Non-Toxic

# evaluate next
Lookup: Using known records, supply Activity for O=C(NCc1ccccc1Cl)[C@@H]1CCC(=O)N1Cc1ccccc1Cl
Found: Non-Toxic

Measured values drawn from ChEMBL document CHEMBL4627246 for this set.
